- System: K562
- test: NCI tumour cell line growth inhibition, 48 h
Calls of active or inactive are those of the source. Cut-off read from the data, not from the text of the source: active = GI50 up to about 1.1 µM and inactive = higher.
Tick one outcome: active, inactive

Req: Field: outcome | Entry: N#CCCN(c1ccc(/C=C2\N=C(c3ccc(Cl)cc3)OC2=O)cc1)S(=O)(=O)c1ccccc1
Resp: inactive

Req: What classification did COc1ccccc1C(=O)c1c(N2CCCCC2)c(=O)c1=O end up with in this test?
Resp: inactive

Req: Which outcome was entered for the compound COc1cc2c(cc1O)N=C[C@@H]1CC[C@@H](O)N1C2=O.COc1cc2c(cc1O)N=C[C@@H]1CC[C@H](O)N1C2=O in this test?
Resp: active

Req: Given C[C@H](N[C@H]1CCC[C@]1(O)C#Cc1ccc2c(c1)OCO2)c1ccccc1 , state the outcome it received in this test.
Resp: inactive

Req: Returns: the outcome recorded for Cc1ccccc1/N=N/c1ccc(/N=N/c2c(O)ccc3cc(S(=O)(=O)O)cc(S(=O)(=O)O)c23)c(C)c1 in this assay.
Resp: inactive

---

- Test system: CCRF-CEM
- test: NCI tumour cell line growth inhibition, 48 h
Activity calls are given as the source filed them. Rule as the data show it: active = GI50 up to about 1.1 µM and inactive = higher. Where a SMILES comes first, the peptide text is derived from it. The star is where a group is joined. Cbz = O=C(OCc1ccccc1)*
Your reply should match one of these outcome classes. TRUE for active, FALSE for inactive

Worked examples follow.
COc1ccc(NC(C)=O)cc1N1C(=O)/C(=C\c2ccccc2)SC1c1cc(OC)c(OC)c(OC)c1 (stereo unspecified) ... FALSE
COc1cc(/C=C/c2nc(NC(=S)Nc3ccccc3)nnc2C)cc(OC)c1OC ... FALSE
O=C1C(Cl)=C(NCCN2CCOCC2)C(=O)c2ncccc21 ... TRUE
C/C(CC(=O)NC1=CC=C(NC(=O)C/C(C)=N\Nc2ccccc2)CC1)=N/Nc1ccccc1 ... FALSE

Req: Short answer needed: outcome of this test for CC(=O)OCC1OC(N2C(c3ccccc3)=CC(c3ccccc3)C(C#N)=C2S)C(OC(C)=O)C(OC(C)=O)C1OC(C)=O (stereo unspecified) ?
Resp: FALSE

Req: Short answer needed: outcome of this test for COc1ccc(Cn2c3c(cc(OC(C)=O)c2=O)Cc2ccccc2-3)cc1 ?
Resp: FALSE

Req: In this assay, the call recorded for O=C1C(Cl)C2(CC(/C=C/c3ccccc3Cl)=NN2c2cccc(S(=O)(=O)O)c2)N1c1nc2ccccc2s1 (stereo unspecified) was what?
Resp: FALSE

Req: Test call for this compound, please: COC(=O)C(CC(C)C)NC(=O)C(CCCNC(=N)N)NC(=O)OCc1ccccc1 (stereo not drawn) (Cbz-Arg-Leu-OMe; configuration not given here)
Resp: FALSE

Req: Which outcome did this test record for the compound CN(C)/N=C1\C=C2CC[C@H](O[Si](C)(C)C(C)(C)C)[C@@]2(C)CC1 ?
Resp: FALSE

Req: For Cc1occ2c1C(=O)CC1C2[C@@H](O)CC2C(C)(C)CCC[C@]12C (stereo partly specified) , what call appears in the results of this test?
Resp: FALSE

Req: Answer briefly: the call reported for C=C1C(=O)O[C@@H]2[C@H](O)[C@@H](C)[C@@H]3C=CC(=O)[C@@]3(C)[C@@H](OC(=O)/C(C)=C/C)[C@H]12 in this assay.
Resp: TRUE

Req: Hi, sorry to bother you, what did the test record for O=S(=O)(N/N=C/c1ccc(Cl)cc1Cl)c1ccccc1 ?
Resp: FALSE

Req: I'd appreciate the recorded outcome for Cc1ccc2c(c1)SC(c1cc3c(cc1Br)OCO3)S2 (stereo unspecified) from this test.
Resp: FALSE

Req: // return assay outcome for CC1(C)CC(=O)c2c(nc3c(ccc4ccccc43)c2-c2ccc(NC(=O)CCCC(=O)Nc3ccc(-c4c5c(nc6c4ccc4ccccc46)CC(C)(C)CC5=O)cc3)cc2)C1
Resp: FALSE

Req: For this compound, state the assay outcome: CCO/C=N\c1c(C#N)c(-c2ccc(Cl)cc2)cn1-c1ccc(C)cc1
Resp: FALSE

Req: How did this test come out for CN(CC(=O)O)CC(=O)O ?
Resp: FALSE

Req: Could you check what this test reported for Cc1cc2c(C)n[nH]c2c(C(=O)O)c1C ?
Resp: FALSE
